All values here come from ChEMBL document CHEMBL1129258.

Field: MIC. Provide a value for each of the compounds that follow.
assay: In vitro antibacterial activity against gram-negative organism Pseudomonas aeruginosa DPHD-2862
Assay type: functional
protocol conditions: Pseudomonas aeruginosa; read-out: MIC

Below are 8 compounds. Give each one its MIC.
1. CN1CCN(c2nc3c(-c4ccc(F)cc4F)cc(C(=O)O)c(=O)n3cc2F)CC1
2. Cc1c(N2CCC(C)(N)C2)c(F)cn2c(=O)c(C(=O)O)cc(C3CC3)c12 (centres undefined)
3. Cc1c(-n2ccnc2)c(F)cn2c(=O)c(C(=O)O)cc(C3CC3)c12
4. CCc1cc(C(=O)O)c(=O)n2cc(F)c(N3CCC(N)C3)c(C)c12 (centres undefined)
5. O=C(O)c1cc(-c2ccc(F)cc2F)c2nc(N3CCC(O)C3)c(F)cn2c1=O (centres undefined)
6. Cc1c(N2C[C@H]3CCCN[C@H]3C2)c(F)cn2c(=O)c(C(=O)O)cc(C3CC3)c12 (single isomer, unassigned)
7. Cc1c(N2CC[C@@H]([C@@H](C)N)C2)c(F)cn2c(=O)c(C(=O)O)cc(C3CC3)c12
8. Cc1ccc(S(=O)(=O)O)cc1.NC1CCN(c2nc3c(cc2F)c(=O)c(C(=O)O)cn3-c2ccc(F)cc2F)C1 (centres undefined) [TOSUFLOXACIN TOSYLATE]

output:
["> 100 mg/L", "6.2 mg/L", "> 100 mg/L", "12.5 mg/L", "> 100 mg/L", "12.5 mg/L", "6.2 mg/L", "> 100 mg/L"]

Below are 6 compounds. Give each one its MIC.
1. Cc1c(N2CCCNCC2)c(F)cn2c(=O)c(C(=O)O)cc(C3CC3)c12
2. Cc1c(N2CC(N)C2)c(F)cn2c(=O)c(C(=O)O)cc(C3CC3)c12
3. COc1ccc(-c2cc(C(=O)O)c(=O)n3cc(F)c(N4CCC(N)C4)nc23)cc1 (centres undefined)
4. Cc1c(F)c(N2CCC(N)C2)cc2c(C3CC3)cc(C(=O)O)c(=O)n12 (centres undefined)
5. CC(=O)N[C@H]1C[C@H](C)N(c2nc3c(-c4ccc(F)cc4F)cc(C(=O)O)c(=O)n3cc2F)C1
6. NC1CCN(c2nc3c(-c4c(F)c(F)c(F)c(F)c4F)cc(C(=O)O)c(=O)n3cc2F)C1 (centres undefined)

output:
["6.2 mg/L", "12.5 mg/L", "50 mg/L", "100 mg/L", "> 100 mg/L", "> 100 mg/L"]
